Origin of the recorded values: PubChem BioAssay (NCI)

Test system: SW-620 colon
Experiment: NCI-60 one-dose screen, 48 h (100 = growth as untreated, 0 = no growth, -100 = all killed)
Details: 10 µM unless noted
The panel holds about 83,000 compounds, 20% with a hit somewhere; the sample as a whole holds those more often.

{"columns": ["Compound", "Unit abbrev", "growth"],
 "data": [
  ["c1ccc(C2=Nc3ccccc3SC2)cc1", "%", 95.4],
  ["Nc1c(C(=O)Nc2cccc(Cl)c2)sc2ncc(Br)cc12", "%", 61.3],
  ["C=C(C)[C@@H]1CC[C@]2(C)[C@H](CC=C3[C@@H]4C[C@](C)(C(=O)N5CCN(C)CC5)CC[C@]4(C)CC[C@]32C)[C@@]1(C)CCC#N", "%", 57.1],
  ["COC(=O)c1ccc(NC(N)=NCCC(C)(C)c2ccc(C(F)(F)F)cc2)nc1", "%", 25],
  ["O=C1OCC2=C1C(c1cccc(Br)c1)c1cc3c(cc1N2CCO)OCCO3 (stereo not given)", "%", 21.3]
]}
